For each entry below, report its CCR2 ANTAGONISM (%) value.
- TARGET_UNDER_TEST: CCR2 (Homo sapiens)
- Construct: expressed in transfected cells
- Sequence (P41597 whole entry, species assumed): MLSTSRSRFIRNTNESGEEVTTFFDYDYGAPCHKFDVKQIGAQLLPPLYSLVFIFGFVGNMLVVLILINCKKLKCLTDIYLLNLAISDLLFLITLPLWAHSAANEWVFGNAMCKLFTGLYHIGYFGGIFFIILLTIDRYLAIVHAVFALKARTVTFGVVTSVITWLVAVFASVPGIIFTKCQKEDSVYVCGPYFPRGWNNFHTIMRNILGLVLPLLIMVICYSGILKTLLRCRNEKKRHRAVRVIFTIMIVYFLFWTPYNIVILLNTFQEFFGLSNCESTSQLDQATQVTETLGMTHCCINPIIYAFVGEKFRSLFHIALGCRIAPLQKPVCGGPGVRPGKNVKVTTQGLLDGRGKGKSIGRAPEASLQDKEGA
- PROTOCOL_SUMMARY: compound-induced calcium activity on the FLIPR Tetra in HEK-Gqi5 cells stably expressing CCR2
- Format: cell-based
- APPLIED_CONDITIONS: HEK-Gqi5 cells stably expressing CCR2; calcium activity, FLIPR Tetra
# output: bare number, implied unit %

Given the compound O=S(=O)(Nc1cc(Cl)ccc1CCc1ccccc1)c1cc2ccccc2o1 [Compound 22] , write its reported CCR2 ANTAGONISM (%).
84

Given the compound N#Cc1ccc(Cl)cc1NS(=O)(=O)c1cc2ccccc2o1 [Compound 16] , write its reported CCR2 ANTAGONISM (%).
102

Given the compound Cc1ccc(Cl)cc1NS(=O)(=O)c1cc2ccccc2o1 [Compound 2] , write its reported CCR2 ANTAGONISM (%).
84

Given the compound Cc1ccc(S(=O)(=O)c2ccccc2)c(NS(=O)(=O)c2cc3ccccc3o2)c1 [Compound 26] , write its reported CCR2 ANTAGONISM (%).
38

Given the compound O=S(=O)(Nc1cc(Cl)ccc1C#Cc1ccccc1)c1cc2ccccc2o1 [Compound 21] , write its reported CCR2 ANTAGONISM (%).
30

Given the compound CCOc1ccc(Cl)cc1NS(=O)(=O)c1cc2ccccc2o1 [Compound 5] , write its reported CCR2 ANTAGONISM (%).
73

Given the compound O=C(O)c1ccccc1COc1ccc(Cl)cc1NS(=O)(=O)c1cc2ccccc2o1 [Compound 31] , write its reported CCR2 ANTAGONISM (%).
99

Given the compound O=C1CCN(C(=O)c2ccc(Cl)cc2NS(=O)(=O)c2cc3ccccc3o2)CC1 [Compound 7] , write its reported CCR2 ANTAGONISM (%).
93

Given the compound O=C(O)c1ccccc1Oc1ccc(Cl)cc1NS(=O)(=O)c1cc2ccccc2o1 [Compound 11] , write its reported CCR2 ANTAGONISM (%).
97

Given the compound Cc1ncccc1Oc1ccc(Cl)cc1NS(=O)(=O)c1cc2ccccc2o1 [Compound 9] , write its reported CCR2 ANTAGONISM (%).
96

Given the compound C#Cc1ccc(Cl)cc1NS(=O)(=O)c1cc2ccccc2o1 [Compound 6] , write its reported CCR2 ANTAGONISM (%).
93

Given the compound Cc1ccc([S+]([O-])c2ccccc2)c(NS(=O)(=O)c2cc3ccccc3o2)c1 (stereo not drawn) [Compound 25] , write its reported CCR2 ANTAGONISM (%).
92

Given the compound O=S(=O)(Nc1cc(F)ccc1Sc1ccccc1)c1cc2ccccc2o1 [Compound 27] , write its reported CCR2 ANTAGONISM (%).
74

Given the compound O=S(=O)(Nc1cc(Cl)ccc1OC(F)(F)F)c1cc2ccccc2o1 [Compound 3] , write its reported CCR2 ANTAGONISM (%).
95

Given the compound COC(=O)c1ccccc1Oc1ccc(Cl)cc1NS(=O)(=O)c1cc2ccccc2o1 [Compound 10] , write its reported CCR2 ANTAGONISM (%).
98

Given the compound O=S(=O)(Nc1cc(Cl)ccc1S(=O)(=O)c1ccccc1)c1cc2ccccc2o1 [Compound 13] , write its reported CCR2 ANTAGONISM (%).
78

Given the compound COc1ccc(Cl)cc1NS(=O)(=O)c1cc2ccccc2o1 [Compound 1] , write its reported CCR2 ANTAGONISM (%).
97

Given the compound O=S(=O)(Nc1cc(F)ccc1S(=O)(=O)c1ccccc1)c1cc2ccccc2o1 [Compound 29] , write its reported CCR2 ANTAGONISM (%).
82
